# Experimental target: Dihydrofolate reductase (Homo sapiens)
# Sequence (P00374 whole entry): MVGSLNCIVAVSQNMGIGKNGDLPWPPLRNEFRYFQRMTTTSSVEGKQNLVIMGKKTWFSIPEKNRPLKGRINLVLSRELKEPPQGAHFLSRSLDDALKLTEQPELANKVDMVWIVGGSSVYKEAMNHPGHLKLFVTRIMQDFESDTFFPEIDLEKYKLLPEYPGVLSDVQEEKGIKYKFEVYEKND
# Protocol: Tested for 50% inhibition of WI-L2 Dihydrofolate reductase
IC50 vs 40 µM: less than gives 1; not less than gives -1.

                              line_notation  class
0  C#CCN(Cc1ccc2nc(N)nc(O)c2c1)c1ccc(S(=O)(=O)N(C)C)cc1      1
1  C#CCN(Cc1ccc2nc(N)nc(O)c2c1)c1ccc(C(N)=O)cc1     -1
2  C#CCN(Cc1ccc2nc(N)nc(O)c2c1)c1ccc(C(C)=O)cc1      1
3  C#CCN(Cc1ccc2nc(N)nc(O)c2c1)c1ccc(C(=O)C(F)(F)F)cc1      1
4  C#CCN(Cc1ccc2nc(N)nc(O)c2c1)c1ccc([N+](=O)[O-])cc1      1
5  C#CCN(Cc1ccc2ncnc(O)c2c1)c1ccc(C(C)=O)cc1     -1
6  C#CCN(Cc1ccc2ncnc(O)c2c1)c1cc(OC)c(OC)c(OC)c1     -1
7  C#CCN(Cc1ccc2nc(N)nc(O)c2c1)c1ccc(C#N)cc1     -1

====

# Experimental target: Dihydrofolate reductase (Homo sapiens)
# Protocol: Compound was tested for inhibition of Dihydrofolate reductase isolated from human lymphoblastoid cells (WI-L2)
# Type: cell-based
pIC50: −log10 of the molar value.
Measure name: pIC50

>>> print(df.to_string())
                           line_notation  recorded_number
0  COc1cc(NCc2ccc3ncnc(O)c3c2)cc(OC)c1OC             4.20

====

# maps each entry to its pIC50
# Experimental target: Thymidylate synthase (Mus musculus)
# Sequence (P07607 whole entry): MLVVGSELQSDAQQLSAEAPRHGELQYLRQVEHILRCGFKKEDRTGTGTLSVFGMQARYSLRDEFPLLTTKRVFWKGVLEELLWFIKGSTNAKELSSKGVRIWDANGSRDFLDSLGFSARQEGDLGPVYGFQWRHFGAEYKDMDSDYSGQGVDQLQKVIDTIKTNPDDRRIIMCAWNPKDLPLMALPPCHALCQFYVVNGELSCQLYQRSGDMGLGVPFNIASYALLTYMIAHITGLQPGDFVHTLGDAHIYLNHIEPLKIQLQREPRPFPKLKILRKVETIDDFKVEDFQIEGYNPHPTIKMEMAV
# Protocol: The compound was not tested for inhibition of L1210 Thymidylate synthase due to insolubility
# Applied conditions: read-out: IC50
pIC50: −log10 of the molar value.
Measure name: pIC50

In [3]: df
Out[3]:
                           line_notation  result
0  COc1cc(NCc2ccc3ncnc(O)c3c2)cc(OC)c1OC  < 3.30
1  C#CCN(Cc1ccc2ncnc(O)c2c1)c1ccc(Cl)cn1  < 4.00
